Origin of measurements: patent US4322346A

- Test system: mice
- experimental-details: Narcosis potentiating activity on mice (sodium hexobarbital narcosis)
- Format: in vivo
- experimental-context: Mus musculus, po; 100 mg/kg p.o., 30 minutes before 50 mg/kg sodium hexobarbital i.v.; prolongation vs control; read-out: Narcosis potentiating activity on mice, Increase, %
measure-name: change in vivo at 100 mg/kg (%)
Give just the numeric value; % need not be written.

{"columns": ["compound", "test-target", "unit", "observed"],
 "data": [
  ["COc1cc2c(cc1OC)C(C)C(C)=NN=C2c1cccc(Cl)c1 (stereo not shown)", "mice", "%", 218]
]}

[ask] Reported change in vivo at 100 mg/kg, compound CCC(C)Oc1cc2c(cc1OC)C(c1ccc(OC)c(OC)c1)=NN=C(C)C2CC (stereo not shown) : ____
[reply] 780

[ask] Then CCC1C(C)=NN=C(c2ccc(OC)c(OC)c2)c2cc(OC)c(OC)cc21 (stereo not shown) [Grandaxin, reference compound] ?
[reply] 239

[ask] Then "COc1cc2c(cc1OC)C(c1cccc(F)c1)=NN=C(C)C2" ?
[reply] 383

---

List of "Fighting behaviour" test on mice, relative activity values.
- System: mice
- experimental-details: Fighting behaviour test on mice (method of Tedeschi et al.)
- Type: in vivo
- experimental-context: relative to Grandaxin (1.0), from ED50 p.o.
Lab note: jot down the number only; don't add units.

See these solved cases before continuing.
{"columns": ["compound", "test-target", "observed"],
 "data": [
  ["CCC1C(C)=NN=C(c2ccc(OC)c(OC)c2)c2cc(OC)c(OC)cc21 (stereo not drawn) [Grandaxin, reference compound]", "mice", 1.0],
  ["CCC(C)Oc1cc2c(cc1OC)C(c1ccc(OC)c(OC)c1)=NN=C(C)C2CC (stereo not drawn)", "mice", 1.1],
  ["COc1cc2c(cc1OC)C(c1cccc(C(F)(F)F)c1)=NN=C(C)C2", "mice", 2.9]
]}

[ask] Reported "Fighting behaviour" test on mice, relative activity, compound COc1cc2c(cc1OC)C(C)C(C)=NN=C2c1cccc(Cl)c1 (stereo not drawn) : ____
[reply] 1.3

[ask] Then "COc1cc2c(cc1OC)C(c1cccc(F)c1)=NN=C(C)C2" ?
[reply] 1.7

[ask] Then "COc1cc2c(cc1OC)C(c1cccc(Cl)c1)=NN=C(C)C2" ?
[reply] 4.0

[ask] Then CCC1C(C)=NN=C(c2ccc(OC)cc2)c2cc(OC)c(OC)cc21 (stereo not drawn) ?
[reply] 1.6

[ask] Then "COc1cccc(C2=NN=C(C)Cc3cc(OC)c(OC)cc32)c1" ?
[reply] 1.3

[ask] Then "COc1cc2c(cc1OC)C(c1ccccc1OC)=NN=C(C)C2" ?
[reply] 1.8

---

- Tested on: mice
- experimental-details: Fighting behaviour test on mice (method of Tedeschi et al.)
- Format: in vivo
- experimental-context: relative to Grandaxin (1.0), from ED50 p.o.
List of "Fighting behaviour" test on mice, relative activity values.
Lab note: jot down the number only; don't add units.

See these solved cases before continuing.
{"columns": ["compound", "test-target", "observed"],
 "data": [
  ["CCCOc1cc2c(cc1OC)C(c1ccc(OC)c(OC)c1)=NN=C(C)C2CC (centres unmarked)", "mice", 1.6],
  ["CCC1C(C)=NN=C(c2ccccc2)c2cc(OC)c(OC)cc21 (centres unmarked)", "mice", 1.8],
  ["COc1cc2c(cc1OC)C(c1ccco1)=NN=C(C)C2", "mice", 1.3],
  ["CCC1C(C)=NN=C(c2cccc(F)c2)c2cc(OC)c(OC)cc21 (centres unmarked)", "mice", 1.6]
]}

The record that follows has no "Fighting behaviour" test on mice, relative activity shown yet.
[ask] What value of "Fighting behaviour" test on mice, relative activity on mice does CCC1C(C)=NN=C(c2ccccc2Cl)c2cc(OC)c(OC)cc21 (centres unmarked) have?
[reply] 1.6

---

- Test system: mice
- experimental-details: Narcosis potentiating activity on mice (sodium hexobarbital narcosis)
- Assay type: in vivo
- experimental-context: Mus musculus, po; 25 mg/kg p.o., 30 minutes before 50 mg/kg sodium hexobarbital i.v.; prolongation vs control; read-out: Narcosis potentiating activity on mice, Increase, %
measure-name: change in vivo at 25 mg/kg
# answer = value followed by unit

{"columns": ["compound", "change in vivo at 25 mg/kg"],
 "data": [
  ["COc1cc2c(cc1OC)C(c1cccc(Cl)c1)=NN=C(C)C2", "344%"],
  ["CCC1C(C)=NN=C(c2cccc(F)c2)c2cc(OC)c(OC)cc21 (stereo not shown)", "204%"],
  ["CCC1C(C)=NN=C(c2ccccc2)c2cc(OC)c(OC)cc21 (stereo not shown)", "181%"],
  ["COc1cc2c(cc1OC)C(c1cccc(C(F)(F)F)c1)=NN=C(C)C2", "294%"],
  ["CCC(C)Oc1cc2c(cc1OC)C(c1ccc(OC)c(OC)c1)=NN=C(C)C2CC (stereo not shown)", "90%"],
  ["CCC1C(C)=NN=C(c2ccccc2Cl)c2cc(OC)c(OC)cc21 (stereo not shown)", "377%"]
]}

[ask] Reported change in vivo at 25 mg/kg, compound CCOc1cc2c(cc1OC)C(c1ccc(OC)c(OC)c1)=NN=C(C)C2CC (stereo not shown) : ____
[reply] 132%

[ask] Then "COc1cc2c(cc1OC)C(c1ccco1)=NN=C(C)C2" ?
[reply] 250%

[ask] Then CCCC1C(C)=NN=C(c2ccc(OC)c(OC)c2)c2cc(OC)c(OC)cc21.O (stereo not shown) [Example 10, hydrate] ?
[reply] 100%

[ask] Then CCC1C(C)=NN=C(c2ccc(OC)c(OC)c2)c2cc(OC)c(OC)cc21 (stereo not shown) [Grandaxin, reference compound] ?
[reply] 81%

[ask] Then "COc1cc2c(cc1OC)C(c1ccccc1OC)=NN=C(C)C2" ?
[reply] 234%

[ask] Then CCC1C(C)=NN=C(c2ccccc2F)c2cc(OC)c(OC)cc21 (stereo not shown) ?
[reply] 256%

[ask] Then CCC1=NN=C(c2ccc(OC)c(OC)c2)c2cc(OC)c(OC)cc2C1CC (stereo not shown) ?
[reply] 134%

[ask] Then CCC1C(C)=NN=C(c2ccccc2C)c2cc(OC)c(OC)cc21 (stereo not shown) ?
[reply] 301%

[ask] Then CCC1C(C)=NN=C(c2ccc(OC)c(OC)c2)c2cc(OC)c(OC(C)C)cc21 (stereo not shown) ?
[reply] 244%

[ask] Then "COc1cccc(C2=NN=C(C)Cc3cc(OC)c(OC)cc32)c1" ?
[reply] 300%
